Listing of entries alongside the reported PC50.
Test system: PSN1
Test Protocol: Antiausteritic activity against human PSN1 cells in nutrient-deprived medium measured after 24 hrs by WST8 assay
Assay type: functional

CC(C)[C@@H]1CC[C@@](C)(O)[C@@H]2CCC(CO)=C[C@H]21 | >100 µM
CC1=C[C@@H]2[C@@H](CC1=O)[C@@](C)(O)CC[C@H]2C(C)C | >100 µM

// switching to the query compound
Q: For the compound O=C1OC[C@H](Cc2ccc3c(c2)OCO3)[C@H]1Cc1ccc2c(c1)OCO2 [HINOKININ] , what PC50 is on record?
Result: 60.1 µM

// provenance: ChEMBL document CHEMBL4043254
